assay: NCI Yeast Anticancer Drug Screen. Data for the bub3 strain (AID 167); conditions: S. cerevisiae bub3 mutant strain, at 11.0 µM, active compounds read high
This is part of a sample that, as a whole, favours compounds with a hit. Of some 79,000 tested, about 15% had one in any assay.
result_type: growth inhibition (%)
One number for each entry, in %.

compound: CCc1ncnc2cc(OCC3CO3)c(OC)cc12 (stereo unspecified)
scale_unit: %
growth inhibition: 2

compound: CSC(=S)Nc1cc(C)ccn1
scale_unit: %
growth inhibition: 41

compound: CCN(CC)CCN1C(=O)c2cccc3cc(OC)cc(c23)C1=O
scale_unit: %
growth inhibition: -7

compound: CN(CCc1ccccn1)c1ccc2c(c1)Cc1ccccc1-2
scale_unit: %
growth inhibition: 13

compound: COc1ccc(O)c(/C=N\Nc2ccccc2)c1
scale_unit: %
growth inhibition: -9

compound: Cc1ccc(Cl)c2[nH]c(-c3ccccc3)cc(=O)c12
scale_unit: %
growth inhibition: 7

compound: C[S+](C)C1(c2ccccc2)C(=O)c2ccccc2C1=O
scale_unit: %
growth inhibition: 2

compound: O=C(NNc1ccnc2cc(Cl)ccc12)/C(=C\c1ccccc1Cl)NC(=O)c1ccccc1
scale_unit: %
growth inhibition: 50

Could you tell me growth inhibition for each of these compounds? They are listed below.
1. Cc1c(C(=O)C(=O)c2ccccc2)c(C)c(C(=O)C(=O)c2ccccc2)c(C)c1C(=O)C(=O)c1ccccc1
2. CC(=O)Oc1ccc2c(c1)Cc1cc(N=C3C=CC(=O)O3)ccc1-2
3. COC(=O)c1cc(-c2ccc(C)cc2)[nH]c(=O)c1C#N

A)
1. -2
2. 95
3. 6

###

Provide the reported growth inhibition of each item.
assay: NCI Yeast Anticancer Drug Screen. Data for the mec2-1 strain (AID 157); conditions: S. cerevisiae mec2-1 strain, at 1.2 µM, active compounds read high
Compounds without any hit were thinned out: in the full panel of roughly 79,000, 15% have a hit.
Numbers only, in %.

compound: c1ccc2c(c1)NC(NC1Nc3ccccc3N1)N2
growth inhibition (%): 5

compound: Cc1cc(I)ccc1N
growth inhibition (%): -3

compound: O=CNc1ccc2c(c1)C(=O)c1ccccc1-2
growth inhibition (%): 3

compound: COC(=O)c1cc(-c2ccc(C)cc2)[nH]c(=O)c1C#N
growth inhibition (%): 0

Could you tell me growth inhibition for each of these compounds? They are listed below.
1. Cc1ccc(CSC(N)=Nc2ccccc2)cc1C
2. O=Nc1cccnc1N=O
3. O=c1c2ccccc2ncn1COCc1ccccc1
4. O=C(O)C1OC1(c1cccc(Cl)c1)c1ccccc1Cl (stereo unspecified)

A)
-3
7
-12
-6

Could you tell me growth inhibition for each of these compounds? They are listed below.
1. CC(/C=C/c1ccc(Cl)cc1)=N\NC(=S)NCC(C)C
2. O=C(CC(=O)n1nc(-c2ccccc2)c(N=Nc2ccccc2C(=O)O)c1-c1ccccc1)Nc1ccc(Cl)cc1
3. C=C(CN(C)C)C(=O)c1cc(C)ccc1C
4. O=C([O][Sn]([O]C(=O)c1ccccc1)([c]1ccccc1)[c]1ccccc1)c1ccccc1

A)
[-2, -2, 17, 21]

Could you tell me growth inhibition for each of these compounds? They are listed below.
1. CCC(C)COC(=O)c1ccc(N=Cc2ccc(C=Nc3ccc(C(=O)OCC(C)CC)cc3)cc2)cc1 (stereo unspecified)
2. C[CH2][Sn]([CH2]C)([O]C(=O)C(OC(C)=O)c1ccccc1)[O]C(=O)C(OC(C)=O)c1ccccc1 (stereo unspecified)
3. CC(C)C1=CC2=C[C@H](O)[C@H]3C(C)(C)CCC[C@]3(C)C2=C(O)C1=O
4. Brc1ccc(-c2cc3c(cc2C2SCCS2)OCO3)cc1
5. CC(=O)[O][Bi]([c]1ccccc1)[c]1ccccc1
6. O=C(OCCN1CCCCCC1)C(c1ccsc1)C1CCCCC1 (stereo unspecified)
7. CC(Br)C(=O)c1ccc2cc(Br)c3ccccc3c2c1 (stereo unspecified)

A)
[-3, 1, -3, -29, 29, 3, 2]

Could you tell me growth inhibition for each of these compounds? They are listed below.
1. CCOC(=O)[C@H]1Nc2ccccc2C2c3ccccc3CC21 (stereo partly specified)
2. COc1cc(/C=C2\CCc3ccccc3C2=O)cc(OC)c1OC
3. CCOC(=O)c1cnc2c(C(F)(F)F)cccc2c1N=[N+]=[N-]
4. Cc1ccc(Nc2nc3c(=O)n(C)c(=O)n(C)c3nc2Nc2ccc(C)cc2)cc1
5. COc1ccc(-c2cn(-c3ccc(I)cc3)c3ncnc(N)c23)cc1
6. COc1cc2c3c(cccc3c1)C(=O)N(CCN(C)C)C2=O

A)
-23
-17
-3
-2
-4
-17
